All values here come from the Human Domainome abundance scans (Beltran et al. 2025).

B1: SAM and SH3 domain-containing protein 1, residues 630 to 700; numbered along this chain, O94885 (parent)
chain: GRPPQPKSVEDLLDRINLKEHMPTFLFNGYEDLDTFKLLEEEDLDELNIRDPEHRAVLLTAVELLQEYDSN

Variants of: B1
Test: abundance fitness (aPCA) (normalised: wild type 0, dead -1); higher = more abundant; growth selection in yeast, the domain comes from the species named
Conditions: Homo sapiens
endpoint: abundance fitness
Respond numerically, and do not add a unit to the figure.

L12Q ... -0.679
L65T ... -0.767
V57M ... 0.067
E31T ... 0.251
K7P ... -0.679

Q: For the variant shown here, N71F , give the reported abundance fitness.
Result: -0.117

Q: Queued: K19D
Result: -0.643

Q: Queued: L39F
Result: -0.973

Q: Queued: V57S
Result: 0.243

Q: Queued: T24H
Result: -0.698

Q: Queued: D45F
Result: -0.48
